// reported Kd for each item listed
# STUDY_TARGET: T1, CCL4L1_HUMAN (Homo sapiens, UniProt Q8NHW4)
# T1 sequence (Q8NHW4 24-92): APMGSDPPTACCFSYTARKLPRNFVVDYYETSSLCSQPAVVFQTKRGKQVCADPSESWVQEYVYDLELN
# ASSAY_EXPLANATION: Biolayer interferometry (BLI) binding
Number only, in nM; omit the unit.

// Kd value for P1183_AMBTR: tick CKBP, Amblyomma triste (protein, Amblyomma triste) EAPKDDFEYDGGCPFVVLDNGTHVKPAGCSHLCNGAPETLDNIECYNVTEEVAKRMTPGIPYACWLGWCSKGECKRDNRTEVCYRGSEEE : 48

Quick note, Kd for P1180_AMBTR: tick CKBP, Amblyomma triste (protein, Amblyomma triste) EEPKDGYDYTEGCPFVVLGNGTHAKPAGCSHLCNGAPETLDDNMECYNVTEEVAKRMTPDIPYTCWLGWCSKGECKRDNRTEVCYRGSERE landed at 20
